- ASSAY REMARKS: Total clearance in rats
- Assay type: ADME, organism-based
- CONDITION INFO: rat, in vivo
// values below are reported clearance
Numeric only. Scale: mL/min/kg

Previously resolved entries follow.
compound_structure_string=CN(C)S(=O)(=O)NCCCC[C@H](NC(=O)OCC1(Cc2ccc(F)cc2)CCC1)C(=O)C(=O)NCc1cccnc1 assay_endpoint=clearance assay_value=9.6
compound_structure_string=C[C@@H](NC(=O)C(=O)[C@H](CCCCNC(=O)N1CCOCC1)NC(=O)OCC1(Cc2ccc(F)cc2)CCC1)c1ccccc1 assay_endpoint=clearance assay_value=43
compound_structure_string=C[C@@H](NC(=O)C(=O)[C@H](CCCCNC(=O)N1CCOCC1)NC(=O)OCC1(Cc2ccncc2)CCC1)c1ccccc1 assay_endpoint=clearance assay_value=27
compound_structure_string=CCCC[C@H](NC(=O)OCC1(Cc2ccc(F)cc2)CCC1)C(=O)C(=O)Nc1ccn[nH]1 assay_endpoint=clearance assay_value=45

Moving on to another molecule below.
Record CNC(=O)NCCCC[C@H](NC(=O)OCC1(Cc2c(F)cccc2F)CCC1)C(=O)C(=O)N[C@H](C)c1ccccc1 . Reported clearance: 33

---

pIC50: −log10 of the molar value.
In what follows, each item is paired with its pIC50 for Pro-cathepsin H (Homo sapiens, UniProt P09668).

compound_structure_string=CCCC[C@H](NC(=O)OCC1(Cc2ccccc2)CCCC1)C(=O)C(=O)N[C@H](C)c1ccccc1 target="Pro-cathepsin H (Homo sapiens, UniProt P09668)" assay_value="< 5.30"

I looked up CN(C)S(=O)(=O)NCCCC[C@H](NC(=O)OCC1(Cc2ccc(F)cc2)CCC1)C(=O)C(=O)NCc1cccnc1 and its pIC50 for Pro-cathepsin H (Homo sapiens, UniProt P09668) was < 5.30

I looked up C[C@@H](NC(=O)C(=O)[C@H](CCCCNC(=O)N1CCOCC1)NC(=O)OCC1(Cc2ccc(F)cc2)CCC1)c1ccccc1 and its pIC50 for Pro-cathepsin H (Homo sapiens, UniProt P09668) was < 5.30

I looked up CCCC[C@H](NC(=O)OC1(Cc2ccccc2)CCCC1)C(=O)C(=O)N[C@H](C)c1ccccc1 and its pIC50 for Pro-cathepsin H (Homo sapiens, UniProt P09668) was < 4.92

I looked up CCCC[C@H](NC(=O)OCC(C)(C)c1ccccc1)C(=O)C(=O)N[C@H](C)c1ccccc1 and its pIC50 for Pro-cathepsin H (Homo sapiens, UniProt P09668) was < 5.30

I looked up CCCC[C@H](NC(=O)OCC(C)(C)Cc1ccccc1)C(=O)C(=O)N[C@H](C)c1ccccc1 and its pIC50 for Pro-cathepsin H (Homo sapiens, UniProt P09668) was < 5.30

---

- ASSAY REMARKS: Equilibrium solubility in fasted state-simulated intestinal fluid was determined […]
- Format: ADME, Rattus norvegicus
- CONDITION INFO: read-out: FS-SIF
ASSAY ENDPOINT: solubility thermodynamic (µg/mL)
Numeric only. Scale: µg/mL

compound_structure_string=CCCC[C@H](NC(=O)OCC1(Cc2ccc(F)cc2)CCC1)C(=O)C(=O)Nc1ccn[nH]1 unit_name=µg/mL assay_value=150
compound_structure_string=C[C@@H](NC(=O)C(=O)[C@H](CCCCNC(=O)N1CCOCC1)NC(=O)OCC1(Cc2ccc(F)cc2)CCC1)c1ccccc1 unit_name=µg/mL assay_value=90
compound_structure_string=CNC(=O)NCCCC[C@H](NC(=O)OCC1(Cc2c(F)cccc2F)CCC1)C(=O)C(=O)N[C@H](C)c1ccccc1 unit_name=µg/mL assay_value=20

Record C[C@@H](NC(=O)C(=O)[C@H](CCCCNC(=O)N1CCOCC1)NC(=O)OCC1(Cc2ccncc2)CCC1)c1ccccc1 . Reported solubility thermodynamic: 300

Record CN(C)S(=O)(=O)NCCCC[C@H](NC(=O)OCC1(Cc2ccc(F)cc2)CCC1)C(=O)C(=O)NCc1cccnc1 . Reported solubility thermodynamic: 30
